src = patent US8247211B2

Record form. Attribute: MIC Streptococcus pneumoniae (GC 1894). Fill in for each entry.
System: Streptococcus sp.
MEASUREMENT NOTES: In vitro antibacterial evaluation: minimum inhibitory concentration (MIC), broth dilution method
Type: cell-based
SETTINGS: broth dilution, 5×10^5 CFU/mL, 18 hours at 35° C.
Source text: […]

Prompt line: So what's the measured MIC Streptococcus pneumoniae (GC 1894) for this one? CC(c1ccccc1)C1NC(=O)CNC(=O)C(CO)NC(=O)C(C(O)C2CNC(=N)N2C2OC(CO)C(O)C(O)C2O)NC(=O)C(C(O)C2CNC(=N)N2)NC(=O)C(Cc2ccc(OC3OC(CO)C(OC4OC5COC(c6ccsc6)OC5C(O)C4O)C(O)C3O)cc2)NC1=O (stereo not shown) [Example 133]
Response line: <0.5 µg/mL

Prompt line: So what's the measured MIC Streptococcus pneumoniae (GC 1894) for this one? CC(c1ccccc1)C1NC(=O)CNC(=O)C(CO)NC(=O)C(C(O)C2CNC(=N)N2C2OC(CO)C(O)C(O)C2O)NC(=O)C(C(O)C2CNC(=N)N2)NC(=O)C(Cc2ccc(OC3OC(CO)C(OC4OC5COC(C67CC8CC(CC(C8)C6)C7)OC5C(O)C4O)C(O)C3O)cc2)NC1=O (stereo not shown) [Example 127]
Response line: <0.12 µg/mL

Prompt line: So what's the measured MIC Streptococcus pneumoniae (GC 1894) for this one? CC(c1ccccc1)C1NC(=O)CNC(=O)C(CO)NC(=O)C(C(O)C2CNC(=N)N2C2OC(CO)C(O)C(O)C2O)NC(=O)C(C(O)C2CNC(=N)N2)NC(=O)C(Cc2ccc(OC3OC(CO)C(OC4OC5COC(c6ccccc6)OC5C(O)C4O)C(O)C3O)cc2)NC1=O (stereo not shown) [Example 104]
Response line: <0.12 µg/mL

Prompt line: So what's the measured MIC Streptococcus pneumoniae (GC 1894) for this one? CC(c1ccccc1)C1NC(=O)CNC(=O)C(CO)NC(=O)C(C(O)C2CNC(=N)N2C2OC(CO)C(O)C(O)C2O)NC(=O)C(C(O)C2CNC(=N)N2)NC(=O)C(Cc2ccc(OC3OC(CO)C(OC4OC5COC(CC6CCN(C(=O)OCc7ccccc7)CC6)OC5C(O)C4O)C(O)C3O)cc2)NC1=O (stereo not shown) [Example 113]
Response line: <0.06 µg/mL
